Target: TYK2 (Mus musculus (Mouse), UniProt Q9R117)
Sequence (Q9R117 whole entry): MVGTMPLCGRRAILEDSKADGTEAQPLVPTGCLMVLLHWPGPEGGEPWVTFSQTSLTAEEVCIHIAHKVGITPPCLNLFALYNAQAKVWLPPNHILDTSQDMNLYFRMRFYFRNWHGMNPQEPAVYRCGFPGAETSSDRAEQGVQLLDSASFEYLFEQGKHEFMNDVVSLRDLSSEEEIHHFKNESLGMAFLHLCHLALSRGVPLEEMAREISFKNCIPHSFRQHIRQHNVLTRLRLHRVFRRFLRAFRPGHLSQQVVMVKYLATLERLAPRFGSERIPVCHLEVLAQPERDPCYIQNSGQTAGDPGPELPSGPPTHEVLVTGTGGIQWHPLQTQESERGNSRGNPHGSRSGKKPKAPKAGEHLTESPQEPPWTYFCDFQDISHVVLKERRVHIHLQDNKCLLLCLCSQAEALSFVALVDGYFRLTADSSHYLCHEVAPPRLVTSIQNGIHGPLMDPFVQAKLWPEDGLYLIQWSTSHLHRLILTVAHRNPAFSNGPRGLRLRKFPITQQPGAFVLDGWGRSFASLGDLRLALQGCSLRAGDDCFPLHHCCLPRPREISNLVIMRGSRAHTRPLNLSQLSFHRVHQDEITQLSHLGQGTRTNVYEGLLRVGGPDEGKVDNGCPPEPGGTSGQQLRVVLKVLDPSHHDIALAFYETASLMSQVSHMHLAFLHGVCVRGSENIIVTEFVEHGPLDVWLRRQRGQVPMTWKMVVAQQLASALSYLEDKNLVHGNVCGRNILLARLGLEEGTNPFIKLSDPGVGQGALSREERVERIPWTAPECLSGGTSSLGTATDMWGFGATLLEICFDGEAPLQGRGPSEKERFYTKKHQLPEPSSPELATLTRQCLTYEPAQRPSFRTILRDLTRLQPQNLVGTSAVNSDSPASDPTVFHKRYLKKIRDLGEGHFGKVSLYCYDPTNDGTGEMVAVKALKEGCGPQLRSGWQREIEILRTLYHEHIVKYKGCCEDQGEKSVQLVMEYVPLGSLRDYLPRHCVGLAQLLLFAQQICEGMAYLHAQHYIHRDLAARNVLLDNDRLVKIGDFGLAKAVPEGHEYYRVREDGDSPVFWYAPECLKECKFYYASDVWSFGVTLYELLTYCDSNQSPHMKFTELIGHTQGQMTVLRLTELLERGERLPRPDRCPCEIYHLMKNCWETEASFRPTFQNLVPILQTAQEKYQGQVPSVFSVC
Experiment: Luciferase assay in L929 ISRE cells stimulated with IFN-α
Assay type: cell-based
Conditions: 100 nM, IFN-α 100 ng/mL, read-out: Inhibitory activity % (100 nM)
measurement-kind: inhibition at 0.1 µM (%)

compound: CNC(=O)c1nnc(NC(=O)C2CC2)cc1Nc1cccc(-c2ncc(P(C)(C)=O)cn2)c1OC [Compound B40]
measured-target: TYK2 (Mus musculus (Mouse), UniProt Q9R117)
recorded-measurement: 33

compound: [2H]C([2H])([2H])n1nc(-c2cccc(Nc3cc(NC(=O)C4CC4)ncc3C(=O)CC)c2OC)cc1P(C)(C)=O [Compound B22]
measured-target: TYK2 (Mus musculus (Mouse), UniProt Q9R117)
recorded-measurement: 43

compound: CCC(=O)c1cnc(NC(=O)C2CC2)cc1Nc1cccc(-c2cc(P(=O)(CC)CC)n(C)n2)c1OC [Compound B24]
measured-target: TYK2 (Mus musculus (Mouse), UniProt Q9R117)
recorded-measurement: 31

compound: CCC(=O)c1cnc(NC(=O)C2CC2)cc1Nc1cc(F)cc(-c2cc(P(C)(C)=O)n(C)n2)c1OC [Compound B17]
measured-target: TYK2 (Mus musculus (Mouse), UniProt Q9R117)
recorded-measurement: 45

compound: CCC(=O)c1cnc(NC(=O)C2CC2)cc1Nc1cccc(-c2ccc(P(C)(C)=O)cc2)c1OC [Compound B3]
measured-target: TYK2 (Mus musculus (Mouse), UniProt Q9R117)
recorded-measurement: 46

compound: CCC(=O)c1cnc(NC(=O)C2CC2)cc1Nc1nccc(-c2cc(P(C)(C)=O)n(C)n2)c1OC [Compound B19]
measured-target: TYK2 (Mus musculus (Mouse), UniProt Q9R117)
recorded-measurement: 74
